species: Rattus norvegicus; experiment: Inhibition of rat recombinant geranylgeranyltransferase type I expressed in Escherichia coli assessed as residual enzyme activity for geranylgeranylation of K-Ras4B at 50 uM incubated for 30 mins in presence of [3H]GGPP by scintillation counting assay relative to control
List of Activity values.
Show the value, then the unit it is measured in.

Examples from the recorded data:
{"columns": ["structure-notation", "result"],
 "data": [
  ["Cc1ccc(S(=O)(=O)N2C[C@@H](C(=O)O)[C@H](SC3CCCC3)C[C@H]2c2cccc(Cl)c2)cc1", "88.7%"],
  ["CC(=O)C1=CC[C@@H](c2ccc(C)cc2)N(S(=O)(=O)c2ccccc2C)C1", "85.3%"],
  ["CCS[C@@H]1C[C@@H](c2cccc(Cl)c2)N(S(=O)(=O)c2ccc(C)cc2)C[C@H]1C(=O)O", "75.7%"]
]}

Shift focus to the following entry.
Quickly give me recorded Activity for CCCCCS[C@@H]1C[C@@H](c2ccc(C)cc2)N(S(=O)(=O)c2ccc(Cl)cc2)C[C@H]1C(=O)O
75.8%

----------
species: Rattus norvegicus; test: Inhibition of rat recombinant geranylgeranyltransferase type I expressed in Escherichia coli assessed as residual enzyme activity for geranylgeranylation of K-Ras4B at 50 uM incubated for 30 mins in presence of [3H]GGPP by scintillation counting assay relative to control
Response field label: string, one of 1 (Activity strictly below 80%) or 0.

Solved entries:
{"columns": ["structure-notation", "group"],
 "data": [
  ["COc1ccc([C@@H]2C[C@@H](Sc3ccccc3)[C@H](C(=O)O)CN2S(=O)(=O)c2ccc(C)cc2)cc1OC", 0],
  ["Cc1ccc(S(=O)(=O)N2[C@@H](c3ccc(C(C)(C)C)cc3)C(C(=O)O)=CC[C@H]2c2cccs2)cc1", 1],
  ["CCCS[C@@H]1C[C@@H](c2ccc(OC)cc2)N(S(=O)(=O)c2ccccc2C)C[C@H]1C(=O)O", 0],
  ["COc1ccc([C@@H]2C[C@@H](SCc3ccc(Cl)cc3)[C@H](C(=O)O)CN2S(=O)(=O)c2ccc(C)cc2)cc1", 1],
  ["CC(=O)C1=CC[C@@H](c2ccc(C)cc2)N(S(=O)(=O)c2ccccc2)C1", 0]
]}

Dear colleague, could you confirm whether Activity of Cc1ccc([C@@H]2C[C@@H](Sc3ccccc3)[C@H](C(=O)O)CN2S(=O)(=O)c2ccccc2C)cc1 falls below 80%? Thanks.
1

I wonder whether Cc1ccc(S(=O)(=O)N2[C@@H](c3cccc(C)c3)C(C(=O)O)=CC[C@H]2c2ccccc2F)cc1 has Activity below 80%. Can you tell?
1

I wonder whether CS(=O)(=O)N1[C@@H](c2ccc(Br)cc2)C(C(=O)O)=CC[C@H]1c1ccc(Cl)cc1 has Activity below 80%. Can you tell?
1

----------
species on record: Rattus norvegicus; experiment: Inhibition of rat recombinant geranylgeranyltransferase type I expressed in Escherichia coli assessed as residual enzyme activity for geranylgeranylation of RhoA at 50 uM incubated for 30 mins in presence of [3H]GGPP by scintillation counting assay relative to control
endpoint-label: Activity (%)
Give just the number in %; leave the unit off.

Give the measured Activity for COc1ccc(S[C@H]2[C@@H](C(=O)O)[C@H](c3ccc(Cl)cc3)N(S(=O)(=O)c3ccc(Cl)cc3)[C@@H]2C(C)C)cc1
8

Give recorded Activity. Cc1ccc(S(=O)(=O)N2C(c3ccc(Cl)c(Cl)c3)CC=C(C(=O)O)C2c2cccc(Cl)c2)cc1 (stereo not given)
4.5

Read off the recorded Activity for Cc1ccc(S(=O)(=O)N2C[C@@H](C(=O)O)[C@H](SCc3ccccc3)C[C@H]2c2ccc(Cl)cc2)cc1
4.6

Item Cc1ccccc1S(=O)(=O)N1C[C@@H](C(=O)O)[C@H](SCCc2ccccc2)C[C@H]1c1ccc(Cl)cc1 : provide Activity
4.1

Consider the molecule Cc1ccccc1S(=O)(=O)N1[C@@H](c2ccccc2F)C(C(=O)O)=CC[C@H]1c1ccc(Cl)cc1 . State its measured Activity.
4.1

----------
As shown below, each of these compounds has a reported Activity value.
organism: Rattus norvegicus; test: Inhibition of rat recombinant geranylgeranyltransferase type I expressed in Escherichia coli assessed as residual enzyme activity for geranylgeranylation of RhoA at 50 uM incubated for 30 mins in presence of [3H]GGPP by scintillation counting assay relative to control
Kindly provide the numeric value in % only, without the unit symbol.

Please give measured Activity of the following entry: CCCC[C@@H]1[C@@H](Sc2ccc(C)cc2)[C@@H](C(=O)O)[C@H](c2cccc(F)c2)N1S(=O)(=O)c1ccc(C)cc1
7.1

Determine from records and report Activity for Cc1ccc(S(=O)(=O)N2C[C@@H](C(=O)O)[C@H](SCCc3ccccc3)C[C@H]2c2ccccc2F)cc1
3.1

Note Activity for the compound shown: C=CCS[C@@H]1C[C@@H](c2ccc(Cl)cc2)N(S(=O)(=O)c2ccccc2C)C[C@H]1C(=O)O
9.4

Return value of Activity for input COc1ccc([C@@H]2C[C@@H](SCc3ccc(Cl)cc3)[C@H](C(=O)O)CN2S(=O)(=O)c2ccccc2)cc1 , no commentary.
13.4

// fetch Activity given entry CCCCS[C@@H]1C[C@@H](c2cccc(Cl)c2)N(S(=O)(=O)c2ccc(C)cc2)C[C@H]1C(=O)O
-1.2

Annotate the compound Cc1ccc(S(=O)(=O)N2[C@@H](c3cccc(Br)c3)C(C(=O)O)=CC[C@H]2c2ccc(Cl)c(Cl)c2)cc1 with its measured Activity.
3.2

Please report the measured Activity for Cc1ccc(S(=O)(=O)N2[C@@H](c3cccc(Br)c3)C(C(=O)O)=CC[C@H]2c2cccc(Br)c2)cc1
3.7

Supply reported Activity belonging to this compound: COc1ccc([C@@H]2C[C@@H](SCCc3ccccc3)[C@H](C(=O)O)CN2S(=O)(=O)c2ccc(C)cc2)cc1
6.1

Look up and state reported Activity for C=CCS[C@H]1[C@@H](C(=O)O)[C@H](c2ccc(C(C)C)cc2)N(S(=O)(=O)c2ccc(C)cc2)[C@@H]1CC1CCCC1
6.1

Give the measured Activity for Cc1ccc(S(=O)(=O)N2[C@H](CC3CCCC3)[C@@H](SCCC(=O)OC(C)(C)C)[C@@H](C(=O)O)[C@@H]2c2ccc(Cl)c(Cl)c2)cc1
7.3

Specify reported Activity for the compound shown: COc1ccc([C@@H]2C[C@@H](SCc3ccc(Cl)cc3)[C@H](C(=O)O)CN2S(=O)(=O)c2ccc(Cl)cc2)cc1
8.5

----------
target: Geranylgeranyl transferase type-2 (Homo sapiens, UniProt P53611+Q92696); assay: Competitive type inhibition of RabGGTase (unknown origin) using varying Rab7 as substrate protein and fixed [3H]geranylgeranyl pyrophosphate incubated for 20 mins by scintillation counting assay
Sequence (P53611 whole entry): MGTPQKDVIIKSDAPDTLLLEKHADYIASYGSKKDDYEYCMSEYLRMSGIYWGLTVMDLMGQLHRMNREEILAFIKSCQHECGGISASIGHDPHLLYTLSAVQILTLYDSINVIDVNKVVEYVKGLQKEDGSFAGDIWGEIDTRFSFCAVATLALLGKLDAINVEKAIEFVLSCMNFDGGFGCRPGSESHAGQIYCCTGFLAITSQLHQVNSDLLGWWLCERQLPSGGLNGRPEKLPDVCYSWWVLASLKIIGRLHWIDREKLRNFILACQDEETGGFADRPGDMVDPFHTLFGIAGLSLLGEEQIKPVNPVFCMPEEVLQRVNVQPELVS
Sequence (Q92696 whole entry): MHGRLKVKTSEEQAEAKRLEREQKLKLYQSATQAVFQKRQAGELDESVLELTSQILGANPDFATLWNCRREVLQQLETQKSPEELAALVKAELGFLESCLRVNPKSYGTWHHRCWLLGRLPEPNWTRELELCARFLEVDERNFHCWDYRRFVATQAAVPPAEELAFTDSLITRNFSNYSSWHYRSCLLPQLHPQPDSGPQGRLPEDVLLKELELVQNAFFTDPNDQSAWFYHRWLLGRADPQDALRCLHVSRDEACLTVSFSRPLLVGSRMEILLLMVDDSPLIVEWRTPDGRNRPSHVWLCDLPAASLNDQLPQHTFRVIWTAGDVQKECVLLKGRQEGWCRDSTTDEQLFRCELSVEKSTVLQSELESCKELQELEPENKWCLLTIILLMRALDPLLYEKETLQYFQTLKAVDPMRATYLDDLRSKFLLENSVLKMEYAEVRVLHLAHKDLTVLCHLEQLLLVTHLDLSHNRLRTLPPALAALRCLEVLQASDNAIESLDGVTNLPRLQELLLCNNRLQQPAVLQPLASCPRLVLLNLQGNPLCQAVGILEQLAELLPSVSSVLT
endpoint-label: pKi
In textbook form, pKi equals minus log to base ten of the concentration in mol/L.

Note down pKi recorded for CCCCCCS[C@H]1[C@@H](C(=O)O)[C@H](c2ccc(Br)cc2)N(S(=O)(=O)c2ccc(C)cc2)[C@@H]1CCC
5.87

----------
test system: Jurkat; test: Antiproliferative activity against human Jurkat cells assessed as inhibition of cell proliferation incubated for 72 hrs by CCK8 assay; type: functional, cell-based
Examples of compounds with documented GI50 follow.

{"columns": ["compound", "GI50"],
 "data": [
  ["COC(=O)[C@H](CC(C)C)NC(=O)C1=CC[C@@H](c2ccc(Cl)cc2)N(S(=O)(=O)c2ccccc2C)[C@H]1c1cccc(Cl)c1", "3.53 to 6.1 µM"]
]}

Name the recorded GI50 of the item Cc1ccccc1S(=O)(=O)N1[C@@H](c2ccc(Cl)cc2)C(C(=O)N[C@@H](Cc2ccccc2)C(N)=O)=C[C@H]1C(C)CC(C)(C)C (some centres not stated) in your answer.
6.4 to 9.76 µM

Give the reported value of GI50 for this record: Cc1ccccc1S(=O)(=O)N1[C@@H](c2cccc(Cl)c2)C(C(N)=O)=CC[C@H]1c1ccc(Cl)cc1
5.36 µM

Report GI50, nothing else, for this compound: CC(C)(C)[C@@H]1C=C(C(=O)N[C@@H](Cc2ccccc2)C(N)=O)[C@H](c2ccc(Cl)c(Cl)c2)N1S(=O)(=O)C(C)(C)C
4.57 to 5.91 µM

----------
species: Rattus norvegicus; experiment: Inhibition of rat recombinant geranylgeranyltransferase type I expressed in Escherichia coli assessed as residual enzyme activity for geranylgeranylation of K-Ras4B at 50 uM incubated for 30 mins in presence of [3H]GGPP by scintillation counting assay relative to control
Think of 60% as a floor: if Activity stands on it or above, it is rule met; beneath it, rule not met.

{"columns": ["structure-notation", "group"],
 "data": [
  ["Cc1ccc([C@@H]2CC=C(C(=O)O)[C@H](c3cccc(Cl)c3)N2S(=O)(=O)c2ccccc2)cc1", "rule not met"],
  ["O=C(O)C1=CC[C@@H](c2ccc(Cl)cc2)N(S(=O)(=O)c2ccc(Cl)cc2)[C@H]1c1cccc(F)c1", "rule not met"],
  ["C=CCS[C@H]1[C@@H](C(=O)O)[C@H](c2ccc(Cl)cc2)N(S(=O)(=O)c2ccccc2C)[C@@H]1CC1CCCC1", "rule not met"],
  ["COc1ccc([C@@H]2CC=C(C(=O)O)[C@H](c3ccc(C(C)(C)C)cc3)N2S(=O)(=O)c2ccccc2C)cc1", "rule met"],
  ["COc1ccc([C@@H]2CC=C(C(=O)O)[C@H](c3cccc(F)c3)N2S(=O)(=O)c2ccc(C)cc2)cc1OC", "rule met"],
  ["Cc1ccc(S(=O)(=O)N2[C@@H](c3cccc(Cl)c3)C(C(=O)O)=CC[C@H]2c2ccccc2)cc1", "rule met"]
]}

Activity >= 60% for Cc1ccc([C@@H]2CC=C(C(=O)O)[C@H](c3cccc(Br)c3)N2S(=O)(=O)c2ccccc2C)cc1 ?
rule not met

hey, is Activity for this one >= 60%? COC(=O)c1ccccc1S(=O)(=O)N1[C@@H](c2ccc(Br)cc2)C(C(=O)O)=CC[C@H]1c1ccc(C)cc1
rule met
